B1: CHCHD6 (parent)
chain: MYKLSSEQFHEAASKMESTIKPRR

variants of: B1; experiment: protein stability index of a GFP-peptide fusion (GPS, HEK-293T) (PSI 1-6); higher = more stable; conditions: c terminus: a fixed tail appended;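 further: lentivirally expressed fusions sorted by FACS into six bins by GFP to DsRed ratio, PSI derived from sequencing read proportions per bin multiplied by bin number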
Consider the following variants; for each one, report its protein stability index.
Give bare numbers.

// solved cases for protein stability index follow
# variant.annotation, protein stability index
measured = [
    ("S5D", 4.06),
    ("H10A", 3.66),
    ("S5W", 3.17),
    ("H10M", 3.37),
    ("A13C", 3.33),
]

Return reported protein stability index values for all items listed beneath this line.
1. S18C
2. K15R
3. E7V
4. S14K
5. F9T
6. S14H
7. A13F
8. E11Q

A)
1: 3.99; 2: 3.72; 3: 3.44; 4: 3.68; 5: 4.2; 6: 3.9; 7: 2.88; 8: 3.69

Return reported protein stability index values for all items listed beneath this line.
1. K3W
2. K3N

A)
1: 2.94; 2: 3.68
